Across several publications, the following IC50 results were reported for 72 kDa type IV collagenase (Homo sapiens, UniProt P08253).
readout.name: IC50 (µM)

Reference set, count: 3
{"smiles.str": "O=C(Nc1ccc2nc(NC(P(=O)(O)O)P(=O)(O)O)sc2c1)c1ccccc1", "IC50 (µM)": 1.16}
{"smiles.str": "O=[N+]([O-])c1ccc2nc(NC(P(=O)(O)O)P(=O)(O)O)sc2c1", "IC50 (µM)": 4.5}
{"smiles.str": "N=C(N)NCCCOc1ccc(C[C@H](NS(=O)(=O)c2ccccc2)C(=O)NO)cc1", "IC50 (µM)": 0.76}

(I) O=C(Cc1ccccc1)Nc1ccc2nc(NC(P(=O)(O)O)P(=O)(O)O)sc2c1
(II) O=P(O)(O)C(Nc1nc2ccc(F)cc2s1)P(=O)(O)O
(III) NCCCOc1ccc(C[C@H](NS(=O)(=O)c2ccc(-c3ccccc3)cc2)C(=O)NO)cc1
(IV) N#C/C(=C\c1cn(Cc2ccc(Cl)cc2)c2ccccc12)c1nn(-c2ccccc2)c(N)c1C#N
(V) O=C(CCCNC(=O)c1cccc(C(=O)NCCCC(=O)NCCC[C@@H](NS(=O)(=O)c2ccc(OCc3cc(Br)cc(Br)c3)cc2)C(=O)NO)c1)NCCC[C@@H](NS(=O)(=O)c1ccc(OCc2cc(Br)cc(Br)c2)cc1)C(=O)NO
QUERY: Please list these molecules in decreasing order of IC50. # the answer lists labels in the order requested
RESULT: IV, II, V, I, III

(I) O=C(NCCC[C@@H](NS(=O)(=O)c1ccc(OCc2cc(Br)cc(Br)c2)cc1)C(=O)NO)NCCC[C@@H](NS(=O)(=O)c1ccc(OCc2cc(Br)cc(Br)c2)cc1)C(=O)NO
(II) O=C(Nc1ccc2nc(NC(P(=O)(O)O)P(=O)(O)O)sc2c1)c1ccc(Br)cc1
(III) O=C(Nc1ccccc1)Nc1ccc2nc(NC(P(=O)(O)O)P(=O)(O)O)sc2c1
(IV) O=C1c2ccccc2C(=O)N1c1ccc2nc(NC(P(=O)(O)O)P(=O)(O)O)sc2c1
QUERY: Sort entries by IC50 from minimum to maximum value. # the answer lists labels in the order requested
RESULT: I, IV, III, II

====

Across several publications, the following IC50 results were reported for 72 kDa type IV collagenase (Homo sapiens, UniProt P08253).
readout.name: IC50 (µM)

Reference set, count: 2
{"compound": "O=P(O)(O)C(Nc1nc2ccccc2s1)P(=O)(O)O", "readout.name": "IC50", "endpoint.unit": "µM", "recorded.result": 12.7}
{"compound": "O=C(NO)[C@H](Cc1ccc(O)cc1)NS(=O)(=O)c1ccc(-c2ccccc2)cc1", "readout.name": "IC50", "endpoint.unit": "µM", "recorded.result": 0.037}

(A) NCCCCCC(=O)N1C[C@H](NS(=O)(=O)c2ccc(Oc3ccccc3)cc2)[C@@H](S)C1 (relative stereo)
(B) O=C(COC(=O)c1ccccc1Sc1ccc([N+](=O)[O-])cc1)c1ccc(-c2ccccc2)cc1
QUERY: Which is greater in IC50, the first item A or the second item B ? Output the label that corresponds to your choice.
RESULT: B
